Kindly supply the reported pIC50 values for the records listed here.
target.of.assay: HIV-1 RT enzyme (wild type) (Human immunodeficiency virus type 1 group M subtype B, UniProt P04585)
Construct: The reverse transcriptase (RT) enzyme assay has been adapted to a 96-well microtiter plate format
assay.text: Reverse transcriptase (RT) enzymatic assay (IC50), PicoGreen fluorescence, wild type
Format: biochemical
pIC50: −log10 of the molar value.

Check out these entries, answers already filled in.
I'd like to know its pIC50. The compound in question is CC(C)Oc1cc(-n2nnnc2SCC(=O)Nc2ccccc2[N+](=O)[O-])c(Cl)cc1Cl
> 7.30

I'd like to know its pIC50. The compound in question is O=C(CSc1nnnn1-c1cccc2ccccc12)Nc1ccccc1Br
> 7.30

I'd like to know its pIC50. The compound in question is O=C(CSc1nnnn1-c1ccccc1Cl)Nc1ccccc1[N+](=O)[O-]
> 7.30

I'd like to know its pIC50. The compound in question is O=C(CSc1nnnn1-c1cccc2ccccc12)Nc1ccc(Cl)cc1Cl
7.00 to 7.30

I'd like to know its pIC50. The compound in question is COc1cc(-n2nnnc2SCC(=O)Nc2ccccc2[N+](=O)[O-])c(Cl)cc1Cl
> 7.30

Provide pIC50 for all items below, preserving their order.
1. Cc1cccc(-n2nnnc2SCC(=O)Nc2ccccc2[N+](=O)[O-])c1C
2. O=C(CSc1nnnn1-c1ccc2c(c1)CCC2)Nc1ccccc1[N+](=O)[O-]
3. Cc1cc(C)c(-n2nnnc2SCC(=O)Nc2ccccc2[N+](=O)[O-])c(C)c1
4. COC(=O)c1ccc(NC(=O)CSc2nnnn2-c2cccc3ccccc23)c(Cl)c1
5. Clc1ccccc1[C@@H]1C[C@H]1CSc1nnnn1-c1cccc2ccccc12 (relative stereo)
6. O=C(CSc1nnnn1-c1cccc2ccccc12)Nc1ccccc1I
7. Cc1ccc(-n2nnnc2SCC(=O)Nc2ccccc2[N+](=O)[O-])c(Br)c1

1: > 7.30; 2: > 7.30; 3: < 7.00; 4: > 7.30; 5: 7.00 to 7.30; 6: 7.00 to 7.30; 7: > 7.30

Provide pIC50 for all items below, preserving their order.
1. O=C(CSc1nnnn1-c1ccccc1F)Nc1ccccc1[N+](=O)[O-]
2. Cc1cccc(-n2nnnc2SCC(=O)Nc2ccccc2[N+](=O)[O-])c1

["> 7.30", "7.00 to 7.30"]

* * *

target.of.assay: HIV-1 RT enzyme (wild type) (Human immunodeficiency virus type 1 group M subtype B, UniProt P04585)
Construct: The reverse transcriptase (RT) enzyme assay has been adapted to a 96-well microtiter plate format
assay.text: Reverse transcriptase (RT) enzymatic assay (IC50), PicoGreen fluorescence, wild type
Type: biochemical
endpoint.label: IC50

Check out these entries, answers already filled in.
I'd like to know its IC50. The compound in question is Cc1cccc(Cl)c1-n1nnnc1SCC(=O)Nc1ccccc1[N+](=O)[O-]
< 50 nM

I'd like to know its IC50. The compound in question is S=C(CSc1nnnn1-c1cccc2ccccc12)Nc1ccccc1Cl
> 100 nM

I'd like to know its IC50. The compound in question is Cc1ccc(F)cc1-n1nnnc1SCC(=O)Nc1ccccc1[N+](=O)[O-]
< 50 nM

I'd like to know its IC50. The compound in question is Cc1cc(Br)cc(C)c1-n1nnnc1SCC(=O)Nc1ccccc1[N+](=O)[O-]
< 50 nM

I'd like to know its IC50. The compound in question is Cc1ccc(-n2nnnc2SCC(=O)Nc2ccccc2[N+](=O)[O-])c(Cl)c1
< 50 nM

I'd like to know its IC50. The compound in question is Cc1ccccc1-n1nnnc1SCC(=O)Nc1ccccc1[N+](=O)[O-]
50 to 100 nM

Provide IC50 for all items below, preserving their order.
1. OC(CSc1nnnn1-c1cccc2ccccc12)Cc1ccccc1Cl (stereo not drawn)
2. OC(CCSc1nnnn1-c1cccc2ccccc12)c1ccccc1Cl (stereo not drawn)
3. COc1ccc(Cl)cc1-n1nnnc1SCC(=O)Nc1ccccc1[N+](=O)[O-]
4. Cc1c(Cl)cccc1-n1nnnc1SCC(=O)Nc1ccccc1[N+](=O)[O-]
5. Cc1cc(Cl)ccc1-n1nnnc1SCC(=O)Nc1ccccc1[N+](=O)[O-]

1. 50 to 100 nM
2. 50 to 100 nM
3. 50 to 100 nM
4. < 50 nM
5. > 100 nM

Provide IC50 for all items below, preserving their order.
1. CSc1ccccc1-n1nnnc1SCC(=O)Nc1ccccc1[N+](=O)[O-]
2. COc1ccccc1-n1nnnc1SCC(=O)Nc1ccccc1[N+](=O)[O-]
3. O=C(CSc1nnnn1-c1cccc2ccccc12)Nc1cccc(F)c1F
4. COc1ccc(-n2nnnc2SCC(=O)Nc2ccccc2[N+](=O)[O-])c(C)c1

1: < 50 nM; 2: 50 to 100 nM; 3: 50 to 100 nM; 4: < 50 nM
